- Test system: A549
- run description: cells
- stated conditions: Homo sapiens, A549, 48 h
- Description: Antiproliferative activity against human A549 cells incubated for 48 hrs by CCK8 assay
Record form. Attribute: IC50. Fill in for each entry.
Give bare numbers, in nM.

Recorded IC50, per entry:
>>> recorded_result("COc1ccc(N(C)c2nc(NC3CC3)nc3ccsc23)cc1")
73.2
>>> recorded_result("COc1c(F)cc(N(C)c2nc(Cl)nc3ccsc23)cc1F")
238
>>> recorded_result("COc1ccc(N(C)c2nc(Cl)nc3ccsc23)cc1")
8.63
>>> recorded_result("COc1ccc(N(C)c2nc(N(C)C)nc3ccsc23)cc1")
285
>>> recorded_result("COc1ccc(N(C)c2nc(N3CCC3)nc3ccsc23)cc1")
699
>>> recorded_result("COc1cccc(N(C)c2nc(Cl)nc3ccsc23)c1")
388
>>> recorded_result("COc1ccc2c(c1)CCCN2c1nc(Cl)nc2ccsc12")
5.13
>>> recorded_result("COc1ccc(N(C)c2nc(Cl)nc3sccc23)cc1")
6.32

Next item in the queue.
Query :: Which IC50 value is on record for "CN(c1ccc(OC(F)(F)F)cc1)c1nc(Cl)nc2ccsc12" ?
Result :: 601
